Target: c-Src SH2;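 note: peptide library displayed on the E. coli surface as eCPX fusions, selected cells deep-sequenced, score is each peptide's frequency after selection divided by its frequency in the input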
Test: SH2 binding enrichment of the phosphorylated peptide, bacterial display (enrichment ratio); higher = better substrate or ligand; peptides without Tyr show the background
Class membership depends on SH2 binding enrichment alone; the intervals are low end = under 0.5, middle = from 0.5 up to 0.6, high end = 0.6 and over

Solved cases below.
RRIHNYRGHLW [VHL_Y112_S111N]; high end
PSNTEYPGPHS [TP63_Y171_D170E]; low end
RLLRGYNQSAF [HLA-C_Y137_D138N_YF]; high end

Q: Exam item: assign AVHPGYGFLSE [PCCA_Y143] to the correct category.
A: low end

Q: Exam item: assign PHMQTYEVDLN [SDHB_Y61] to the correct category.
A: high end

Q: Exam item: assign VVQGIYGYHHH [UFSP2_Y285_Y290H] to the correct category.
A: high end

Q: Exam item: assign SPGGDYAAMGA [ERBB3_Y1276_G1271S] to the correct category.
A: high end

Q: Exam item: assign TLDTDYQMTKR [ADA_Y308] to the correct category.
A: middle

Q: Exam item: assign GRTNIYNNKKD [SLC26A3_Y520_K521N] to the correct category.
A: high end

Q: Exam item: assign PVQAAYKKVVA [HBB_Y131_Q132K] to the correct category.
A: middle

Q: Exam item: assign CTTIHYIYMCN [TP53_Y234_N235I] to the correct category.
A: high end

Q: Exam item: assign WAMLAYNRSKL [WWOX_Y293] to the correct category.
A: middle

The reported numbers originate from the supplement of paper PMC10065799.
